ASSAYED_TARGET: T1, Bzz1-2, P38822
T1 sequence (P38822 568-633, looked up): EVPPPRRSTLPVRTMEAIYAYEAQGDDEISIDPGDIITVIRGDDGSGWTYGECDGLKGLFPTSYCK
ASSAY_OVERVIEW: SPOT array
EXPERIMENTAL_CONTEXT: median of control spots 4538
OBSERVATION_TYPE: SPOT intensity

Below: 10 binders and their reported SPOT intensity.
ATKSASPTLPTRRSR | 1
TTAPALPSLPPPPLL | 2
QFDLKMPSKPIHNLK | 0
NILKRRPLKLEAPSK | 18
NLKKRPPTAPQRKIS | 324
VKPRQLFPIPLNKVD | 0
VQPTAAPATPPRHIS | 0
HRRRRVFSIPSLKSI | 5
RPPRPPPKPLHLRTE | 38
TSFKGRPKPPKTLKH | 11

(A) APKREAPKPPANTSP
(B) RPKRRAPPPVPKKPS
Hi there, can you help? I need to know whether A or B has lower measured SPOT intensity. Bench note: the answer is the label of the chosen record.
A
